# assay-system: CAL PDZ domain (UniProt Q9HD26-2 278-362)
# protocol-description: fluorescence polarisation
// reported Ki for each item listed
Numbers only; they are read as µM.

CNQLAWFDTDL [C-βCAT10]
1110

// moving on: another record for Ki
Quick check: Ki of CLPHPHSTTRV [C-NLG2_(10)] ?
107
